From various publications: pKi for UniProt P07477.
Sequence (P07477 whole entry): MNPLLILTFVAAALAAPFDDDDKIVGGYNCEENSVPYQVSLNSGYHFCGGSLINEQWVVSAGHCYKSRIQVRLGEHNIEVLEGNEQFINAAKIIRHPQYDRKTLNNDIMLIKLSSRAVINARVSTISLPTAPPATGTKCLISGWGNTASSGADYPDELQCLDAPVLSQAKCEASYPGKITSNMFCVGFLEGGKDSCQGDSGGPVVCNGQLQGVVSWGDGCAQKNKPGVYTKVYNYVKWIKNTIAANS
pKi: −log10 of the molar value.

# COMPOUND, QUALIFIER_OPERATOR, pKi
rows = [
    ("N=C(N)Nc1ccc(CNC(=O)N2CCN(C(=O)O[C@H]3CCC[C@@H](OC(=O)N4CCN(C(=O)NCc5ccc(NC(=N)N)cc5)CC4)CCC3)CC2)cc1", "=", 4.41),
    ("COc1ccc(-n2nnnc2C(=O)Nc2ccc(-c3ccccc3S(N)(=O)=O)cc2)cc1", "<", 5.80),
    ("CC(=O)N[C@H](Cc1ccccc1)C(=O)N1CCC[C@H]1C(=O)N[C@@H](CCCn1ccnc1[N+](=O)[O-])B1O[C@@H]2CC3CC(C3(C)C)[C@]2(C)O1 (stereo not given in full)", "<", 5.92),
    ("N=C(N)c1cccc(CN2CC[C@H](NS(=O)(=O)c3ccc4nc(N)ccc4c3)C2=O)c1", "<", 5.54),
    ("CN(CC(=O)NCc1ccc(CN)cc1)C(=O)OCc1ccc(COC(=O)N(C)CC(=O)NCc2ccc(CN)cc2)cc1", "=", 4.30),
    ("CCOc1ccc2cc(S(=O)(=O)N[C@H]3CCN(Cc4cccc(C(=N)N)c4)C3=O)ccc2n1", "<", 5.54),
    ("COc1ccc2ccc(S(=O)(=O)NC3CCN(Cc4ccc5ccc(N)nc5c4)C3=O)cc2c1 (stereo not given)", "<", 5.54),
    ("Cc1nc(N)ccc1CNC(=O)Cn1c(C)cc(S(=O)(=O)c2cccs2)c(N)c1=O", "=", 6.47),
    ("CC[C@@H]1Cc2cc(C)n(CC(=O)NCc3ccc(N)nc3C)c(=O)c2NC1=O", "=", 5.38),
    ("N=C(N)Nc1ccc(CCC(=O)N2CCN(C(=O)O[C@H]3CCC[C@@H](OC(=O)N4CCN(C(=O)CCc5ccc(NC(=N)N)cc5)CC4)CCC3)CC2)cc1", "<", 3.00),
    ("N=C(N)c1ccc(O)c(CN2CC[C@H](NS(=O)(=O)c3cc4ncccc4s3)C2=O)c1", "=", 6.00),
    ("O=C(CCCCCn1ccnc1)N1CCN(C(=O)O[C@H]2CCC[C@@H](OC(=O)N3CCN(C(=O)CCCCCn4ccnc4)CC3)CCC2)CC1", "<", 3.00),
    ("CC1(C)C2CC1[C@]1(C)OB([C@H](CCCNC(=N)N)NC(=O)c3cccc(-c4cccc(NS(C)(=O)=O)c4)c3)O[C@@H]1C2 (stereo not given in full)", "=", 8.42),
    ("N=C(N)c1cccc(C2=NOC(CC(=O)O)(C(=O)Nc3ccc(-c4ccccc4S(N)(=O)=O)cc3)C2)c1.O=C(O)C(F)(F)F (stereo not given)", "=", 6.20),
    ("N=C(N)Nc1ccc(CNC(=O)N2CCN(C(=O)O[C@H]3CCC[C@@H](OC(=O)N4CCN(C(=O)CCNc5ccncc5)CC4)CCC3)CC2)cc1", "=", 3.95),
]
